These entries and their values trace back to ChEMBL document CHEMBL4513216.

# experiment_description: Toxicity liver stage against HepG2, at 10uM
# Assay type: cell-based
# Set-up: test concentration 10 uM, cell line HepG2-A16-CD81EGFP
# condition_parameters: human, HepG2-A16-CD81EGFP cells; read-out: INHIBITION
measured_attribute: cytotoxicity at 10 µM (%)
The reply should be a number in %, with the unit left off.

Would you please look over these solved cases?
{"compound": "Cc1cc(-c2cncnc2)ccc1OCC(N)=O", "measured_attribute": "cytotoxicity at 10 µM", "u": "%", "test_result": 8.07}
{"compound": "Cc1nnc(CN(C)CC2(O)CCCN(CCC3CCCCC3)C2=O)o1 (stereo not drawn)", "measured_attribute": "cytotoxicity at 10 µM", "u": "%", "test_result": 17.1}
{"compound": "Cc1ccc(OCC(=O)NCc2ccco2)nc1", "measured_attribute": "cytotoxicity at 10 µM", "u": "%", "test_result": -0.224}

Field request: cytotoxicity at 10 µM | item: N#CC1(C(=O)NCC2CCC3(CCNCC3)O2)CC1 (stereo not drawn)
-5.22

Follow-up item: O=C(NCC1CC1)[C@@H]1CCO[C@@H]2CCN(c3ncccn3)C[C@@H]21
7.64

Cool, now CN(C)C(=O)NC1COC2(CCN(Cc3ccco3)CC2)C1 (stereo not drawn)
-72.4
